System: ACHN renal
experiment_summary: NCI-60 one-dose screen, 48 h (100 = growth as untreated, 0 = no growth, -100 = all killed)
measurement_conditions: 10 µM unless noted
This is part of a sample that, as a whole, favours compounds with a hit. Of some 83,000 tested, about 20% had one in any assay. The source made the active and inactive calls. The calls were made as follows: active = growth percent below 10; inactive = the rest.

compound	growth
O=C(c1ccccc1)C1(Br)CCCCC1	100% (inactive)
CCCCCc1cc[n+](CC(=O)c2ccccc2)cc1	102% (inactive)
CCCCC/C(C)=N\NC(N)=S	92.6% (inactive)
N=c1sc2ccccc2n1CC(=O)O	105% (inactive)
COC(=O)c1ccccc1Cl	106% (inactive)
Clc1ccc2c(c1)N(C1CCCN(Cc3ccccc3)C1)c1ccccc1S2 (stereo unspecified)	52.5% (inactive)

* * *

growth: recorded values
System: MOLT-4 leukemia
experiment_summary: NCI-60 one-dose screen, 48 h (100 = growth as untreated, 0 = no growth, -100 = all killed)
measurement_conditions: 10 µM unless noted
Compounds without any hit were thinned out: in the full panel of roughly 83,000, 20% have a hit.
attribute_measured: growth (%)

compound	assay_value
CC(=O)c1cc2ccccc2o1	99.7
CC(=O)/C(N=Nc1ccc(S(=O)(=O)c2ccc(N=N/C(C(C)=O)=C(/C)O)cc2)cc1)=C(\C)O	100
O=C1c2ccccc2CN1c1ccccc1	85.2
N#Cc1c[nH]n2ccnc12	109
NNc1ncnc2cccc(Cl)c12	108
O=S(=O)(O)c1ccc2cc(O)ccc2c1	103
CC(C)(C)OC(=O)NCCc1ccc(N)cc1	92.8
COc1cc(Cl)ccc1C	81.7
CN1C2C=CC(=O)C1C1C(=O)N(c3ccccc3)C(=O)C12 (centres undefined)	74.4

* * *

// reported growth per item
Test system: OVCAR-8 ovarian
experiment_summary: NCI-60 one-dose screen, 48 h (100 = growth as untreated, 0 = no growth, -100 = all killed)
measurement_conditions: 10 µM unless noted
Procedure: Growth inhibition of the OVCAR-8 human tumor cell line is measured as a screen for anti-cancer activity. Cells are grown in 96 well plates and exposed to the test compound for 48 hours. Compounds are tested at a single concentration, which is 10^-5 M for most compounds. The reported endpoint is percent growth (GI% or GIPRCNT), where numbers from 0 - 100% represent growth inhibition, and numbers from -100% - 0 represent cell death. For example, a value of 40 represents 60% growth inhibition. […]
About 83,000 compounds went through this panel and 20% of them were active in at least one assay; those are over-represented in the sample as a whole.
attribute_measured: growth (%)

molecule	attribute_measured	endpoint_unit	assay_value
CC(=O)c1cccc(OC(=O)c2ccccc2)c1	growth	%	99
O=C1Cc2ccccc2C(=O)N1	growth	%	56.2
CCOP(=O)(OCC)/C(C#N)=C/c1c(C)[nH]c2ccccc12	growth	%	94.8
O=[N+]([O-])c1ccc(N2CCN=N2)cc1	growth	%	88
Nc1ccc(Cl)c(S(=O)(=O)O)c1	growth	%	93.3
CN1C2C=CC(=O)C1C1C(=O)N(c3ccccc3)C(=O)C12 (stereo not drawn)	growth	%	69.9
CC1(C)CC(=O)NC1=O	growth	%	98.9
CN(C)C(=S)N(C)C	growth	%	109
Cc1cccc(Cl)c1N	growth	%	96.1
COC(=O)c1nc(N)nc(C(=O)OC)c1C(=O)c1cccc2ccccc12	growth	%	117
Nc1nc(=S)c2[nH]cnc2[nH]1	growth	%	12
COC(=O)C(Cc1cn(C(C)=O)c2ccccc12)P(=O)(OC)OC (stereo not drawn)	growth	%	106
O=C(O)C#Cc1ccc(Cl)cc1	growth	%	97.6

* * *

System: SR leukemia
experiment_summary: NCI-60 one-dose screen, 48 h (100 = growth as untreated, 0 = no growth, -100 = all killed)
measurement_conditions: 10 µM unless noted
Compounds without any hit were thinned out: in the full panel of roughly 83,000, 20% have a hit. The source made the active and inactive calls. Rule for the calls: active = growth percent below 10; inactive = the rest.
Below, each of the compounds is paired with its reported growth value.
attribute_measured: growth

compound	attribute_measured	assay_value
O=C1C=CC(=O)N1Cc1ccco1	growth	74.7% (inactive)
O=c1ccn2c(n1)OC1CC2OC1COC(c1ccccc1)(c1ccccc1)c1ccccc1 (stereo not drawn)	growth	46.1% [100 µM] (inactive)
CCOC(C)=N	growth	87.4% (inactive)
O=P(O)(O)OC1C(OP(=O)(O)O)C(OP(=O)(O)O)C(OP(=O)(O)O)C(OP(=O)(O)O)C1OP(=O)(O)O.[Cu+2] (stereo not drawn)	growth	81.4% (inactive)
COC(=O)C(Cc1cn(C(C)=O)c2ccccc12)P(=O)(OC)OC (stereo not drawn)	growth	94.6% (inactive)
C=CCN1C(=O)c2ccccc2C1=O	growth	99.9% (inactive)
CCN(CC)C(CC(=O)c1ccccc1)C(=O)c1ccccc1 (stereo not drawn)	growth	29% (inactive)
O=C(O)C#Cc1ccc(Cl)cc1	growth	100% (inactive)

* * *

System: SNB-19 CNS
experiment_summary: NCI-60 one-dose screen, 48 h (100 = growth as untreated, 0 = no growth, -100 = all killed)
measurement_conditions: 10 µM unless noted
This is part of a sample that, as a whole, favours compounds with a hit. Of some 83,000 tested, about 20% had one in any assay.
In this section we review reported growth values for a set of molecules.

molecule	growth / %
O=[N+]([O-])c1ccc(NC(c2ccccc2)c2ccc3cccnc3c2O)cc1 (stereo not drawn)	21.2
NNc1ncnc2cccc(Cl)c12	103
Nc1ccc(Cl)c(S(=O)(=O)O)c1	94.4
Clc1ccc2sc(-c3ccccc3)nc2c1	97.6
Cc1ccc(NC(=S)N/C=C(\c2ccccc2)S(=O)Cc2ccccc2)c(C)c1 (stereo not drawn)	100
CC(NC(=O)CCl)c1ccccc1 (stereo not drawn)	103
O=C(O)C#Cc1ccc(Cl)cc1	99.8
O=S(=O)(O)c1ccc2cc(O)ccc2c1	109
N#Cc1ccc(/C=C/C(=O)c2ccccc2)cc1	89.9
C/C=C/C(=O)OCCCCCCCCCCCC	85.2
COc1ccc(CCNC(=S)NN)cc1OC	127
COc1ccc(/C=N/NC(N)=S)cc1	100
CCOc1ccc(/C=C\C(=O)O)cc1	106
C/C(CC(C)C)=N/NC(N)=S	107
COc1cc2oc3cc(=O)cc4oc(-c5ccccc5)cc(c2c2c1CCC(c1ccccc1)O2)c43 (stereo not drawn)	98.9
CCc1ccc(OC(=O)CCl)cc1	108
CC(=O)Nc1cscc1NC(C)=O	92.6
CC(=O)c1cccc(OC(=O)c2ccccc2)c1	97.2
CC1=CC(=O)c2cccc(NC3=NCCO3)c21	104
Nc1ccccc1SC(CC(=O)c1ccccc1)c1cccc([N+](=O)[O-])c1 (stereo not drawn)	89.8
CCCC(=O)OCC(COC(=O)CCC)OC(=O)CCC	97.6
Nc1nc(-c2ccccn2)cc(-c2cc(-c3ccccn3)nc(N)n2)n1	101
O=c1[nH]c(=S)[nH]n1C(=S)n1[nH]c(=S)[nH]c1=O	99.9
CC1OS(=O)OC1C (stereo not drawn)	101
CCCCCCC(C)CC1=C(O)c2ccccc2C(=O)C1=O (stereo not drawn)	46
CCCC(=O)Oc1ccc(CC)cc1	109
COc1cc(Cl)ccc1C	79
CCOP(=O)(OCC)/C(C#N)=C/c1c(C)[nH]c2ccccc12	94.6
CC(C)=NOC(C)C(=O)O (stereo not drawn)	108
CC(=O)Oc1cc(C)c(OC(C)=O)c(C)c1C	96.4
Oc1ccc(O)c(-c2ccccc2)c1	67.5
CCCC(=O)Oc1ccc2ccccc2c1	101
O=C1C2=C(Nc3cc(Cl)ccc3N2)OC1c1c[nH]c2ccc(COc3ccccc3)cc12 (stereo not drawn)	30.4

* * *

Measured growth by item
Test system: IGROV1 ovarian
experiment_summary: NCI-60 one-dose screen, 48 h (100 = growth as untreated, 0 = no growth, -100 = all killed)
measurement_conditions: 10 µM unless noted
This is part of a sample that, as a whole, favours compounds with a hit. Of some 83,000 tested, about 20% had one in any assay. Calls of active or inactive are those of the source. The calls were made as follows: active = growth percent below 10; inactive = the rest.

molecule	growth
COc1ccc(CCO)cc1	99.6% (inactive)
COc1ccc(/C=N/NC(N)=S)cc1	76.9% (inactive)
O=C(N=C1C(=O)C2(CCCCC2)C2(N=C(c3ccccc3)OC2=O)C12CCCCC2)c1ccccc1 (configuration not stated)	75% (inactive)
COc1ccc(CCN=Cc2ccc(Cl)cc2)cc1OC	105% (inactive)
CC(=O)C[n+]1ccccc1Sc1ccc(Cl)cc1	101% (inactive)
O=C1C(=O)c2ccccc2C(O)=C1CC=C(Cl)Cl	42.7% (inactive)
CCOP(C)(=O)/C(Cc1ccc(OC)c(OC)c1)=N\O (configuration not stated)	104% (inactive)
O=C1C=CC(n2cc(F)c(=O)[nH]c2=O)O1 (configuration not stated)	103% (inactive)
O=[N+]([O-])c1ccc(NC(c2ccccc2)c2ccc3cccnc3c2O)cc1 (configuration not stated)	10.9% (inactive)
N#Cc1c[nH]n2ccnc12	93.1% (inactive)
OCCCc1ccccc1	82.4% (inactive)
CC(O)CCNC(c1ccccc1)C(O)c1ccccc1 (configuration not stated)	95.9% (inactive)
NCCSSC/C=C\CSSCCN	115% (inactive)
O=COCCCc1ccccc1	104% (inactive)
CC(C)(C)C1CCC(=NO)CC1 (configuration not stated)	99.5% (inactive)
OC1CCCN(Cc2ccccc2)C1 (configuration not stated)	112% (inactive)
CCOCCC(=O)O	114% (inactive)
O=[N+]([O-])c1ccc(N2CCN=N2)cc1	96.1% (inactive)
COc1cc2c(cc1O)C(=O)CCCC2	64.7% (inactive)
CC(=O)Oc1cc(C)c(OC(C)=O)c(C)c1C	122% (inactive)
COc1ccc2oc3c(ccc[n+]3C)c(=O)c2c1	108% (inactive)
CC(NC(=O)CCl)c1ccccc1 (configuration not stated)	104% (inactive)
O=[N+]([O-])c1cccc(N=Cc2ccccc2)c1	114% (inactive)
CCC(C)NC(=O)c1ccccc1C (configuration not stated)	94.1% (inactive)
O=C1c2cccnc2-c2ncccc21	113% [100 µM] (inactive)
COC(=O)c1nc(=S)[nH]c(C(=O)OC)c1C(=O)c1ccccc1	101% (inactive)
Cc1c(Cl)cc(Cl)c(N)c1Cl	114% (inactive)
COC(=O)c1cc(C(=O)OC)cc([N+](=O)[O-])c1	118% (inactive)
COCCCNC1=C(C#N)C(=O)NC(c2cccs2)S1 (configuration not stated)	119% (inactive)
O=C1c2ccccc2C(c2ccccc2)C1c1ccccc1 (configuration not stated)	91.1% (inactive)
CC(C)(C)OC(=O)NCCc1ccc(N)cc1	104% (inactive)
O=C(O)c1cc(=O)[nH]c(=O)[nH]1	103% (inactive)
OCc1cccc(F)c1	79.6% (inactive)
COc1ccc(CCNC(=S)NN)cc1OC	107% (inactive)
Cn1c(-c2ccccc2)cc(=O)cc1-c1ccccc1	88% (inactive)
CN(C)CC(CN(C)C)C(O)c1ccccc1 (configuration not stated)	106% (inactive)
Oc1ccc(O)c(-c2ccccc2)c1	47% (inactive)
CCn1c2ccc(N(C)C)cc2c2cc(N(C)C)ccc21	107% (inactive)
CC(=O)Nc1ccc2oc(=O)ccc2c1	105% (inactive)
CSc1nc(N)c(N)c(N)n1	108% (inactive)
C/C(CC(C)C)=N/NC(N)=S	97.4% (inactive)
Cc1cccc(Cl)c1N	153% (inactive)

Where these numbers come from: PubChem BioAssay (NCI)
